B1: scFv; the commonest letter at each place (parent)
chain 1: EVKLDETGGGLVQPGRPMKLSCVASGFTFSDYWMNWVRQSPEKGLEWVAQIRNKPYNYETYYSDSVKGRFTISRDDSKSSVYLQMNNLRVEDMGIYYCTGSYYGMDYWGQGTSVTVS
chain 2: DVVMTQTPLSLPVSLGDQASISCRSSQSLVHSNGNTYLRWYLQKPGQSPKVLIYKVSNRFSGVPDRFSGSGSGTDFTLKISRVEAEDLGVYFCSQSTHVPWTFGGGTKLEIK

- Variants of: B1
- PROCEDURE_TEXT: Kd (Tite-Seq)
- TEST_SETTINGS: with fluorescein; format: scFv 4-4-20, heavy + light
MEASURED_ATTRIBUTE: log10 of Kd (log10 of the value in µM)
Quick note: numbers are log10 of Kd, with µM as the unit.

What measured log10 of Kd goes with chain 1 F29W ? -1.25

What measured log10 of Kd goes with chain 1 Y102E Y103A ? 0.71

What measured log10 of Kd goes with chain 1 F29Q Y32C ? 0.98

What measured log10 of Kd goes with chain 1 Y32R ? -1.19

What measured log10 of Kd goes with chain 1 F29S D31Y ? -2.46

What measured log10 of Kd goes with chain 1 F29W D31G ? 0.73

What measured log10 of Kd goes with chain 1 T28M ? -2.58

What measured log10 of Kd goes with chain 1 V37F ? -1.59

What measured log10 of Kd goes with chain 1 W108G ? -0.99
